tested on: SR leukemia; assay: NCI tumour cell line growth inhibition, 48 h
value-kind: TGI (µM)
API: value field is a number in µM; no unit string.

Some solved cases for reference:
>>> df
                         chemical_structure  value_kind  reading
0  COc1ccc2[nH]c(Cl)c(/C=C3/C(=O)N(c4ccccc4)c4ccccc43)c2c1         TGI     11.1
1  Cc1oc2nc[nH]c(=O)c2c1C(=O)/C=C/c1ccc(Br)cc1         TGI     16.3

Continue with the molecule presented below.
Lookup: Reported TGI, molecule "NC(=O)c1ccc(NCC2=CC(=O)C=CC2=O)cc1" : ____
Found: 56.4
